- procedure text: Plasma pharmacokinetics at steady state
- Format: in vivo, human
- condition info: human, plasma, oral, Mean Cmax, Cohort B1.2.1, n = 5; ven 600 mg, idasa 150 mg; steady state
measure name: Cmax (µg/mL)
Give bare numbers, in µg/mL.

compound: COc1cc(C(=O)O)ccc1NC(=O)[C@@H]1N[C@@H](CC(C)(C)C)[C@](C#N)(c2ccc(Cl)cc2F)[C@H]1c1cccc(Cl)c1F [idasa, idasanutlin]
readout units: µg/mL
Cmax: 3.22

Q. If you can, please state the reported Cmax value of CC1(C)CCC(CN2CCN(c3ccc(C(=O)NS(=O)(=O)c4ccc(NCC5CCOCC5)c([N+](=O)[O-])c4)c(Oc4cnc5[nH]ccc5c4)c3)CC2)=C(c2ccc(Cl)cc2)C1 [ven, Venetoclax] .
A. 1.45

###

- procedure text: Plasma pharmacokinetics at steady state
- Format: in vivo, human
- condition info: human, plasma, oral, 400 mg, Mean Cmax, Cohort B4, n = 8; ven 400 mg, idasa 400 mg; steady state
measure name: Cmax (ng/mL)
Numbers only, in ng/mL.

Q. Bench note: what Cmax did COc1cc(C(=O)O)ccc1NC(=O)[C@@H]1N[C@@H](CC(C)(C)C)[C@](C#N)(c2ccc(Cl)cc2F)[C@H]1c1cccc(Cl)c1F show?
A. 7110
